// provenance: patent US8822464B2

target: human recombinant mGluR5 (Homo sapiens, UniProt P41594); construct: cultured with tetracycline, hygromycin and geneticin; tetracycline withdrawn 3-7 days before the assay; assay: positive modulation of mGluR5, calcium based FLIPR assay in HEK 293 cells; settings: HEK 293 cell line expressing human recombinant mGluR5; peak height of Ca release fluorescence signal after glutamate at approximately 5% basal stimulation; nonlinear regression
Sequence (P41594 21-1212): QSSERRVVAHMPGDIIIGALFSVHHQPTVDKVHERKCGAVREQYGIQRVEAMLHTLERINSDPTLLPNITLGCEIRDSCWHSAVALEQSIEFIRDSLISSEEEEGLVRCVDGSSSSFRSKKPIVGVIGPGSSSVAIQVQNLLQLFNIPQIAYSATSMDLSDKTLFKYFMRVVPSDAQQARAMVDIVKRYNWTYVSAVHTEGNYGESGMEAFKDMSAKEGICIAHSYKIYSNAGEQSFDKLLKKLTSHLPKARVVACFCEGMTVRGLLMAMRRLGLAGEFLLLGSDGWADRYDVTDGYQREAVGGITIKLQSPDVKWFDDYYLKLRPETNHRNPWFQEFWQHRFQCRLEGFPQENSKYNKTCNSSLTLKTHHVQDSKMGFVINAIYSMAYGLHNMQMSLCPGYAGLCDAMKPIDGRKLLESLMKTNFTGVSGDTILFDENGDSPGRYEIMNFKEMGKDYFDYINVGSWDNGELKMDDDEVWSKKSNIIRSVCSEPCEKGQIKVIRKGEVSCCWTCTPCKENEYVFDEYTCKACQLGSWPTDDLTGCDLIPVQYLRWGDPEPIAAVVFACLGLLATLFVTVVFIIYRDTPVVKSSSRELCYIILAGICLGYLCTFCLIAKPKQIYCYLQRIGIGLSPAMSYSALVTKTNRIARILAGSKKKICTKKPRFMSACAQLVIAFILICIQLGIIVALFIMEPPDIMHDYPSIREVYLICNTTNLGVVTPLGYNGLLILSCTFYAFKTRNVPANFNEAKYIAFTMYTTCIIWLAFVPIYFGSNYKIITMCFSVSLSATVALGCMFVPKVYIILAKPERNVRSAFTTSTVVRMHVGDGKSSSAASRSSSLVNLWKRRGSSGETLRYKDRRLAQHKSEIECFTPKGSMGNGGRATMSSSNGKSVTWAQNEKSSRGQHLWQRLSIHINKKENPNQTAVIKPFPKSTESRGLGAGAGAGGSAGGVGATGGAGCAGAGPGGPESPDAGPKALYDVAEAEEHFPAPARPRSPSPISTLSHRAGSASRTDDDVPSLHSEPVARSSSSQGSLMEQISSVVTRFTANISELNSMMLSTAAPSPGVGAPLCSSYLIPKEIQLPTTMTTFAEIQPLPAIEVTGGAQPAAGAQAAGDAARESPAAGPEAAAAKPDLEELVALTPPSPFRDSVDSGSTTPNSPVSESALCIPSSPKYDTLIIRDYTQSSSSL
pEC50: −log10 of the molar value.
reported property: pEC50

Previously resolved entries follow.
> print(dat)
                                   compound  reported.measurement
1  O=C(Cn1nc(-c2ccccc2)cc1-c1ccccc1)N1CCN(c2ccccn2)CC1                  7.54
2  O=C(Cn1nc(-c2ccccc2)cc1-c1ccccc1)N1CCN(c2ccc(Cl)nn2)CC1                  6.67
3  Cc1cc(-c2cc(-c3ccccc3)n(CC(=O)N3CCN(c4cc(OCCN5CCOCC5)ncn4)CC3)n2)ccc1F                  7.40
4  CCc1cc(-c2cccc(C#N)c2)nn1CC(=O)N1CCN(c2cc(OC)ncn2)CC1                  6.31
5  COc1cc(N2CCN(C(=O)Cn3nc(-c4cccc(Cl)c4)cc3-c3ccccc3)CC2)ncn1                  7.70
6  CCc1cc(-c2ccc(F)cc2)nn1CC(=O)N1CCN(c2ncccn2)CC1                  6.60

1. O=C(Cn1nc(-c2ccccc2F)cc1-c1ccccc1F)N1CCN(c2ncccn2)CC1
2. CCc1cc(-c2ccc(F)c(C)c2)nn1CC(=O)N1CCN(c2ncc(OC)cn2)CC1
**Query** Lab note: record which item had the higher pEC50, 1 or 2 . Give the chosen item's label as your response.
**Result** 2
(2: 7.29, 1: 6.16)

A. CCc1cc(-c2ccc(C)c(C)c2)nn1CC(=O)N1CCN(c2ncccn2)CC1
B. COc1ccc(-c2cc(C(C)C)n(CC(=O)N3CCN(c4cccnn4)CC3)n2)cc1
C. Cc1ccc(-c2cc(-c3ccccc3)n(CC(=O)N3CCN(c4ccccn4)CC3)n2)nc1
D. COc1cc(N2CCN(C(=O)Cn3nc(-c4ccc(F)cc4)cc3-c3ccc(F)cc3)CC2)ncn1
E. CCc1cccc(-c2cc(CC)n(CC(=O)N3CCN(c4ncc(OC)cn4)CC3)n2)c1
**Query** List the 5 entries from lowest pEC50 to highest pEC50 value. When ranking, write the labels in the order the request describes.
**Result** B, E, A, C, D
(B: 6.15, E: 6.86, A: 7.16, C: 7.46, D: 7.66)
